target: FGFR1 (h) (Homo sapiens, UniProt P11362)
Sequence (P11362 22-822): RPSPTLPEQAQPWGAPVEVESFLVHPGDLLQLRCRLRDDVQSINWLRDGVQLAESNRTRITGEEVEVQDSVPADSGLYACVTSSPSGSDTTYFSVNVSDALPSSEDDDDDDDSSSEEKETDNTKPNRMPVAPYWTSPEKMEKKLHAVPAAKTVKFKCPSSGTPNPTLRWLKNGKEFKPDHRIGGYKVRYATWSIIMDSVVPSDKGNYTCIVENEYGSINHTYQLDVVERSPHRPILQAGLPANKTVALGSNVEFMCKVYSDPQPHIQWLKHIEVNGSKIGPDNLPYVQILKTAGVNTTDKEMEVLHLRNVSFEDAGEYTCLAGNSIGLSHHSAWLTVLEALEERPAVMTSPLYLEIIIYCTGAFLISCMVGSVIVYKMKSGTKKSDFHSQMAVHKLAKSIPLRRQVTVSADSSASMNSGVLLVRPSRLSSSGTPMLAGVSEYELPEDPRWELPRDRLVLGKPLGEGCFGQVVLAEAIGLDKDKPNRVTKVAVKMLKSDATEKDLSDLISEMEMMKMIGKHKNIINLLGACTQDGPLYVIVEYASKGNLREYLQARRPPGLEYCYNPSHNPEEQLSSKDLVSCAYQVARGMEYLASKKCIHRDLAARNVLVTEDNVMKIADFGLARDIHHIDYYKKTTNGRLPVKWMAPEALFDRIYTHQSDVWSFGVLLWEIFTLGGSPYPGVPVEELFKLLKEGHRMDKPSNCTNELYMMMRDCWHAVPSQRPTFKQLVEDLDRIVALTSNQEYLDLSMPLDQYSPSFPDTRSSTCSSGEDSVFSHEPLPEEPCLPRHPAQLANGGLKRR
measurement protocol: FGFR1 (enzymatic assay), TR-FRET
Type: biochemical
reported conditions: read-out: FGFR 1 pIC50 (converted)
parameter measured: IC50 (nM)
Numbers only, in nM.

Check out these entries, answers already filled in.
molecule | IC50 (nM)
COc1cc(OC)c(F)c(N(c2ccc3ncc(-c4cnn(C)c4)nc3n2)C(C)c2ncc[nH]2)c1 (stereo not shown) | 0.851
COc1cc(OC)c(F)c(/N=c2\ccc3ncc(-c4cnn(C)c4)nc3n2CCN(C2COC2)C2COC2)c1F | 1.02
COc1ccc(Cl)c(N(CC2CCC(=O)N2)c2ccc3ncc(-c4cnn(C)c4)nc3n2)c1Cl (stereo not shown) [Compound 93] | 66.1

Look at each molecule and report its IC50.
1. COc1cc(OC)c(F)c(N(CCN(C2COC2)C2COC2)c2ccc3ncc(-c4cnn(C)c4)nc3n2)c1F (single isomer, unassigned)
2. COc1cc(OC)c(F)c(N(CCO)c2ccc3ncc(-c4cnn(CCO)c4)nc3n2)c1
3. COc1cc(OC)c(F)c(N(CC2CC2)c2ccc3ncc(-c4cnn(C)c4)nc3n2)c1F (single isomer, unassigned)
4. COc1cc(OC)c(F)c(N(Cc2nccn2C)c2ccc3ncc(-c4cnn(C)c4)nc3n2)c1

stdout:
1: 0.977; 2: 0.759; 3: 0.912; 4: 2.14

====

target: Ba/F3-FGFR1-transfected cells (Homo sapiens, UniProt P11362)
Construct: BAF3-FGFR1 (MIN IL3) pIC50; other: minus IL3
Sequence (P11362 whole entry, change not shown): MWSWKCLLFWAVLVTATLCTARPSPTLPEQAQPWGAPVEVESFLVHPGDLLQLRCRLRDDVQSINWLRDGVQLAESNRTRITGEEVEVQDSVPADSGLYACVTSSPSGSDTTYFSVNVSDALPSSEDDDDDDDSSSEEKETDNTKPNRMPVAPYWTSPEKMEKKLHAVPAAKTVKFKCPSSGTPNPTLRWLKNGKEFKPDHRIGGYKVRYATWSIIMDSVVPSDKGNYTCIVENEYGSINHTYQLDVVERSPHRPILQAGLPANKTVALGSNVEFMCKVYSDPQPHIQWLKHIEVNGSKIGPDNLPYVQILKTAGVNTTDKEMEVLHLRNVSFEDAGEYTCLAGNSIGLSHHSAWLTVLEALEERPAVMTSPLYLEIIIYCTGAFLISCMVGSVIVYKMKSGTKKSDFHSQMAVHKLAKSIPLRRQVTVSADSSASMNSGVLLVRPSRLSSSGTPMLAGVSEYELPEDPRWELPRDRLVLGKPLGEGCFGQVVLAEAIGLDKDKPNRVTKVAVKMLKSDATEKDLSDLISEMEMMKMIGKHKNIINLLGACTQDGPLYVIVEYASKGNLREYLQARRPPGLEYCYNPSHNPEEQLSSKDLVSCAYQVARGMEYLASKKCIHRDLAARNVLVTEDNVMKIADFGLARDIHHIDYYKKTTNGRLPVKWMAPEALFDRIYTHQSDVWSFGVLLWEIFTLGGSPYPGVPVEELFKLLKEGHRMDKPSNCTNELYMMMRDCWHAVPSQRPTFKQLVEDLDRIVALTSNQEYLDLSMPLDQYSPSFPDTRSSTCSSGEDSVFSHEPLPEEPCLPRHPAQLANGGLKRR
measurement protocol: Ba/F3-FGFR1 (minus IL3) cellular proliferation assay, Alamar Blue
Assay type: cell-based
Returns one of MET or NOT MET; MET when BAF3-FGFR1 (MIN IL3) pIC50 is >= 7.

compound | target | label
COc1cc(OC)c(F)c(N(Cc2c(C)noc2C)c2ccc3ncc(-c4cnn(C)c4)nc3n2)c1 [Compound 178] | Ba/F3-FGFR1-transfected cells (Homo sapiens, UniProt P11362) | NOT MET
COc1cc(OC)c(F)c(N(CC2CCC(=O)N2)c2ccc3ncc(-c4cnn(CC(C)(C)O)c4)nc3n2)c1 (stereo not drawn) [Compound 285] | Ba/F3-FGFR1-transfected cells (Homo sapiens, UniProt P11362) | NOT MET
COc1cc(OC)cc(N(CCCO)c2ccc3ncc(-c4cnn(C)c4)nc3n2)c1 [Compound 18] | Ba/F3-FGFR1-transfected cells (Homo sapiens, UniProt P11362) | MET
COc1cc(OC)c(F)c(N(CC(O)c2cnn(C)c2)c2ccc3ncc(-c4cnn(C)c4)nc3n2)c1 (stereo not drawn) [Compound 244] | Ba/F3-FGFR1-transfected cells (Homo sapiens, UniProt P11362) | NOT MET

stdin: I'd appreciate it if you could say whether COc1cc(OC)c(F)c(N(Cc2nncn2C)c2ccc3ncc(-c4cnn(C)c4)nc3n2)c1 [Compound 132] has BAF3-FGFR1 (MIN IL3) pIC50 at least equal to 7.
stdout: NOT MET

stdin: Quick one: COc1cc(OC)c(F)c(N(Cc2cc(C)no2)c2ccc3ncc(-c4cnn(C)c4)nc3n2)c1 [Compound 185]
stdout: MET

stdin: Quick one: COc1cc(OC)c(F)c(N(CCN2CCOCC2)c2ccc3ncc(-c4cnn(C)c4)nc3n2)c1 [Compound 149]
stdout: MET

stdin: Quick one: COc1cc(OC)c(F)c(N(Cc2ncc[nH]2)c2ccc3ncc(-c4cnn(C5COC5)c4)nc3n2)c1 [Compound 253]
stdout: MET

stdin: Quick one: COc1cc(OC)cc(N(Cc2nnc(NCCO)o2)c2ccc3ncc(-c4cnn(C)c4)nc3n2)c1 [Compound 282]
stdout: NOT MET

====

target: Ba/F3-FGFR1-transfected cells (Homo sapiens, UniProt P11362)
Construct: BAF3-FGFR1 (MIN IL3) pIC50; other: minus IL3
measurement protocol: Ba/F3-FGFR1 (minus IL3) cellular proliferation assay, Alamar Blue
Format: cell-based
parameter measured: BAF3-FGFR1 (MIN IL3) pIC50
Numbers only.

Check out these entries, answers already filled in.
compound | BAF3-FGFR1 (MIN IL3) pIC50
COc1cc(OC)c(Cl)c(N(Cc2ncc[nH]2)c2ccc3ncc(-c4cnn(C)c4)nc3n2)c1 [Compound 42] | 8.57
COc1cc(/N=c2\ccc3ncc(-c4cnn(CC(C)(C)O)c4)nc3n2CC(C)(C)O)c(F)c(OC)c1 (single isomer, unassigned) [Compound 207] | 7.45
COc1cc(OC)cc(N(Cc2nc(OC)cc(OC)n2)c2ccc3ncc(-c4cnn(C)c4)nc3n2)c1 [Compound 174] | 5.68

Look at each compound and report its BAF3-FGFR1 (MIN IL3) pIC50.
1. COc1cc(OC)c(Cl)c(N(C[C@H]2CCC(=O)N2)c2ccc3ncc(-c4cnn(C)c4)nc3n2)c1Cl [Compound 97]
2. COc1cc(OC)c(F)c(N(CCS(C)(=O)=O)c2ccc3ncc(-c4cnn(C)c4)nc3n2)c1 [Compound 226]
3. COc1cc(/N=c2\ccc3ncc(-c4cnn(C)c4)nc3n2Cc2cc(C)on2)c(F)c(OC)c1 [Compound 181]
4. COc1cc(OC)c(F)c(N(Cc2ncc[nH]2)c2ccc3ncc(-c4cnn(C(CO)CCl)c4)nc3n2)c1 (centres unmarked) [Compound 209]
5. COc1cc(OC)c(F)c(N(CC2COC2)c2ccc3ncc(-c4cnn(C)c4)nc3n2)c1 [Compound 144]
6. COc1cc(OC)cc(N(CC(O)C(F)(F)F)c2ccc3ncc(-c4cnn(C)c4)nc3n2)c1 (single isomer, unassigned) [Compound 34]
7. COc1cc(/N=c2\ccc3ncc(-c4cnn(C)c4)nc3n2Cc2cnn(C)c2)c(F)c(OC)c1 [Compound 196]
8. COc1cc(OC)c(F)c(N(CC2CCC(=O)N2CCO)c2ccc3ncc(-c4cnn(C)c4)nc3n2)c1 (single isomer, unassigned) [Compound 218]

stdout:
6.80
7.32
7.76
8.71
6.44
7.18
8.95
7.51

====

target: Ba/F3-FGFR3-transfected cells (Homo sapiens)
Construct: BAF3-FGFR3 (MIN IL3) pIC50; other: minus IL3
Sequence (P22607 whole entry, change not shown): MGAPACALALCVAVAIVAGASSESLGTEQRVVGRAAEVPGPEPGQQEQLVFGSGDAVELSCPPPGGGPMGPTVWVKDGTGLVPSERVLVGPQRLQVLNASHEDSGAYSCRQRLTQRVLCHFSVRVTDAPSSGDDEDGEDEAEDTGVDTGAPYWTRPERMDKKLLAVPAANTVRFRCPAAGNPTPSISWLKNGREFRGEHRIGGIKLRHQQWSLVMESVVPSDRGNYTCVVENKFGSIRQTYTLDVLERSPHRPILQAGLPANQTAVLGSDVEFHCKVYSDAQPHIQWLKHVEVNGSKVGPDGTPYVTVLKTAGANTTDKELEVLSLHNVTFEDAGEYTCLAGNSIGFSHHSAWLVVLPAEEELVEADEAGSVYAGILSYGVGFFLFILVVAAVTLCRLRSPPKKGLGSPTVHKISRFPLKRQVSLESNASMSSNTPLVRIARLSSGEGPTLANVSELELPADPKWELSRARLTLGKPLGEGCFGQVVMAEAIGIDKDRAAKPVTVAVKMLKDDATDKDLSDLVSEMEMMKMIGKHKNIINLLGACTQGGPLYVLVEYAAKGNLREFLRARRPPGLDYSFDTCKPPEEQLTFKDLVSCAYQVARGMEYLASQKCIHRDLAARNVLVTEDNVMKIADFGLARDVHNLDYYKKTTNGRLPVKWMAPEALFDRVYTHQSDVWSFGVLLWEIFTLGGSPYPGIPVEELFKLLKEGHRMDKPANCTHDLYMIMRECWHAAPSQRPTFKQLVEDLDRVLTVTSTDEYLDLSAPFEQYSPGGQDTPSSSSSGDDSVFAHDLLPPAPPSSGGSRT
measurement protocol: Ba/F3-FGFR3 (minus IL3) cellular proliferation assay, Alamar Blue
Type: cell-based
Hi there, I'd appreciate the recorded BAF3-FGFR3 (MIN IL3) pIC50 for every entry that follows.

compound | BAF3-FGFR3 (MIN IL3) pIC50
COc1ccc(Cl)c(N(Cc2ncc[nH]2)c2ccc3ncc(-c4cnn(C)c4)nc3n2)c1Cl | 6.04
COc1cc(OC)c(F)c(N(Cc2ncc[nH]2)c2ccc3ncc(-c4cnn(C)c4)nc3n2)c1F | 8.5
COc1cc(OC)cc(N(Cc2ncc[nH]2)c2ccc3ncc(-c4cnn(C)c4)nc3n2)c1 [Compound 24] | 8.20
COc1cc(OC)c(F)c(N(CC2CCC(=O)N2)c2ccc3ncc(-c4cnn(CC(C)(C)O)c4)nc3n2)c1 (centres unmarked) | 6.84
CNCCN(c1ccc2ncc(-c3cnn(C)c3)nc2n1)c1c(F)ccc(OC)c1Cl | 6.76

Look at each compound and report its BAF3-FGFR3 (MIN IL3) pIC50.
1. COc1cc(OC)c(F)c(N(Cc2c[nH]nn2)c2ccc3ncc(-c4cnn(C)c4)nc3n2)c1
2. COc1cc(OC)c(F)c(N(CCN2CCOCC2)c2ccc3ncc(-c4cnn(C)c4)nc3n2)c1

stdout:
1. 7.91
2. ~7.66

stdin: Entry under review: `COc1cc(OC)c(F)c(N(Cc2ncc[nH]2)c2ccc3ncc(N4CCOCC4)nc3n2)c1` . Reported BAF3-FGFR3 (MIN IL3) pIC50?
stdout: 7.73

====

Test system: Ba/F3-KDR-transfected cells
measurement protocol: Ba/F3-KDR (plus IL3) cellular proliferation assay, counterscreen with 10 ng/ml murine IL3
Assay type: cell-based
reported conditions: plus IL3 (10 ng/ml murine IL3, counterscreen)
Experimental: Ba/F3-KDR (Minus IL3 or Plus IL3) (Cellular Proliferation Assay) In a 384 well plate, 100 n1 of compound dilution in DMSO was sprayed before adding 50 μl cell culture medium (phenol red free RPMI-1640, 10% FBS, 2 mM L-Glutamine and 50 μg/ml Gentamycin) containing 20000 cells per well of Ba/F3-KDR-transfected cells. Cells were put in an incubator at 37° C. and 5% CO2. […]
Structures can show the parent of a compound that is named as a salt.
Hi there, I'd appreciate the recorded BAF3-KDR (PLUS IL3) pIC50 for every entry that follows.

compound | parameter measured | result
COc1ccc(Cl)c(N(CC2CCC(=O)N2)c2ccc3ncc(-c4cnn(C)c4)nc3n2)c1Cl (single isomer, unassigned) [Compound 91] | BAF3-KDR (PLUS IL3) pIC50 | <5

Look at each compound and report its BAF3-KDR (PLUS IL3) pIC50.
1. COc1cc(OC)c(F)c(N(CC(O)COC(C)C)c2ccc3ncc(-c4cnn(C)c4)nc3n2)c1F (stereo not shown) [Compound 61]
2. COc1cc(OC)c(F)c(N(Cc2ncc[nH]2)c2ccc3ncc(-c4cnn(C)c4)nc3n2)c1 [23-phosphate salt]
3. COc1cc(/N=c2\ccc3ncc(-c4cnn(C)c4)nc3n2CC2CCC(=O)N2C)c(F)c(OC)c1 (stereo not shown)

stdout:
1. <5
2. <5
3. <5
